System: HEPG2
Experiment: Euclidean distance of Cell Painting phenotypic profile (signed KS, 77 features) to DMSO centroid (dimensionless distance); 5 or 10 uM (library dependent); higher = stronger phenotypic change vs DMSO (phenoactivity)
Settings: 48 h
Returns one of TRUE or FALSE; TRUE when Euclidean distance is >= 1.

INSERT INTO assay_data (compound, answer_label) VALUES
  ('CN1C(=O)CC(c2ccccc2)C1=O (configuration not stated) [Phensuximide]', 'FALSE'),
  ('O=C(c1cn(Cc2cncn2Cc2ccc(Br)cc2)cc1-c1cccc2ccccc12)N1CCOCC1', 'TRUE'),
  ('CC(C)N(CCC(=O)c1ccc2ccccc2c1)Cc1ccccc1', 'FALSE'),
  ('CO[C@H]1C[C@@H]2CC[C@@H](C)[C@@](O)(O2)C(=O)C(=O)N2CCCC[C@H]2C(=O)O[C@H]([C@H](C)C[C@@H]2CC[C@H](n3cnnn3)[C@H](OC)C2)CC(=O)[C@H](C)/C=C(\C)[C@@H](O)[C@@H](OC)C(=O)[C@H](C)C[C@H](C)/C=C/C=C/C=C/1C', 'TRUE'),
  ('N#CC(c1ccc(Cl)cc1)c1c(Cl)cc(-n2ncc(=O)[nH]c2=O)cc1Cl (configuration not stated)', 'TRUE'),
  ('CC(=O)[C@H]1CC[C@H]2[C@@H]3C[C@H](C)C4=CC(=O)CC[C@]4(C)[C@H]3[C@@H](O)C[C@]12C', 'FALSE'),
  ('CCCc1nc(C(C)(C)O)c(C(=O)O)n1Cc1ccc(-c2ccccc2-c2nnn[nH]2)cc1', 'FALSE');
